Data origin: the supplement of paper PMC6555819

# Test system: PPARa:RXRa (NR concentration 270 nM, RXRa partner concentration 90 nM)
# procedure_details: PBM binding z-score (relative to random genomic background probes); higher = stronger binding; sequences stand for … in GC…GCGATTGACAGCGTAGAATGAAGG
For each entry below, report its PBM binding z-score value.
Give bare numbers.

{"columns": ["seq", "PBM binding z-score"],
 "data": [
  ["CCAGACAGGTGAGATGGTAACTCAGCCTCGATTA", 0.132],
  ["ACATGTAGGTTATCGGGTCATTCAGTTTGCGCAT", 4.49],
  ["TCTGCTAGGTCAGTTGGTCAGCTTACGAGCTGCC", 1.29],
  ["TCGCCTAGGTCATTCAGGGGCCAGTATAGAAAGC", 3.8],
  ["AGAATGAGGTTATTAAGTTCAGGGAATTGCGGTC", 3.11],
  ["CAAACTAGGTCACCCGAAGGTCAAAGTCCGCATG", 6.24],
  ["TCTTGTAGATCAAGCAGGATAAGAAAGCCTGAGT", 0.163],
  ["ATCTCTAGGTAAACAAGTTCAGTGAATGCCGAAC", 1.04]
]}

Could I get PBM binding z-score for every one of these entries?
1. TCTCGTAGATCAATAGAGGTTAAGAAAGTGCGCT
2. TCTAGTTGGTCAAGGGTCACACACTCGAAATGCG
3. CGACAAAGTTCAAGGTAACGTAACAGAAAGCAGC
4. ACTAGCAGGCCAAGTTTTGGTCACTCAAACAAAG

a:
1. 1.62
2. 5.27
3. 4.63
4. -0.0813
